Experimental System: T1, Recombinant protein RHAMM-CT (truncated RHAMM, carboxy terminus containing the HA binding domain, amino acids … (UniProt Q00547 706-766))
T1 chain: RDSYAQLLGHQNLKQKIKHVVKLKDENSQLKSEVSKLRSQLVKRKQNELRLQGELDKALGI
Assay Comment: SPR; RHAMM 1000 nM
Square brackets hold non-standard residues; d marks the D form. Ends that are not written are not given here. Ahx = NCCCCCC(=O)O

Binder: EAFEDEEEEIDG-NH2 (Synthetic 12-mer made on Rink amide MBHA resin) [peptide 12a (SEQ ID NO: 12), unmodified tubulin-derived peptide]
Kd (nM): 201
//
Binder: Ac-C[Ahx]FTEAESNMNDLV-NH2 [peptide 14b (SEQ ID NO: 34), SEQ ID NO: 14 with N-acetyl cysteine modified N-terminus]
Kd (nM): 31.9
//
Binder: GEFEEEAEEEVA-NH2 (Synthetic 12-mer made on Rink amide MBHA resin) [peptide 11a (SEQ ID NO: 11), unmodified tubulin-derived peptide, beta-IV CTT]
Kd (nM): 120
//
Binder: SVEAEAEEGEEY-NH2 (Synthetic 12-mer made on Rink amide MBHA resin) [peptide 3a (SEQ ID NO: 3), unmodified tubulin-derived peptide, alpha-IIIc CTT]
Kd (nM): 358
